tested on: Saccharomyces cerevisiae; experiment: protein stability index of tFT-peptide fusion in wild type (PSI (0-1 scale)); higher = more stable (slower turnover); conditions: genetic background: wild type;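 further: PSI derived as read-weighted mean over the 8 sorting bins, only variants exceeding 10 total reads kept, mCherry placed adjacent to the peptide and sfGFP distal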
I'd be grateful if you could share measured protein stability index for these entries.

Known protein stability index results, listed for orientation:
RSLRVLLPHYFR
0.663
PSGAASFWRVVG
0.16
VRGAVNGWRLVG
0.157
FSMRWTFRRWVN
0.11
PSRAASFWRVVG
0.149

Hello, I would appreciate it if you could give protein stability index for each entry below.
1. FSMRWTFDYWVN
2. AITLPMCPLLAR
3. RSLRELLPLYFR
4. PSLDASFWRVVG
5. ARWRVGWWRGAS
6. ALWRVGLWRGAS
7. PSLAYSFWRVVG

# output
[0.618, 0.311, 0.476, 0.128, 0.405, 0.464, 0.134]
